Where do the numbers come from? From ChEMBL document CHEMBL1201861.

Field: pIC50. Provide a value for each of the compounds that follow.
Tested on: EKVX;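 further: growth inhibition of human EKVX cells, read out with a cell viability assay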
ASSAY PROTOCOL: cells
Type: functional, cell-based, Homo sapiens
CONDITION SUMMARY: Homo sapiens, EKVX
Description: SANGER: Inhibition of human EKVX cell growth in a cell viability assay.
pIC50: −log10 of the molar value.

Some entries whose results are on file:
{"SMILES REPR": "Cc1ccc(C(=O)Nc2ccc(CN3CCN(C)CC3)c(C(F)(F)F)c2)cc1C#Cc1cnc2cccnn12", "ASSAY TARGET": "EKVX", "pIC50": "< 6.29"}
{"SMILES REPR": "CC1(C)CCC(c2ccc(Cl)cc2)=C(CN2CCN(c3ccc(C(=O)NS(=O)(=O)c4ccc(N[C@H](CCN5CCOCC5)CSc5ccccc5)c(S(=O)(=O)C(F)(F)F)c4)cc3)CC2)C1", "ASSAY TARGET": "EKVX", "pIC50": "< 5.70"}
{"SMILES REPR": "Cc1ccc(NC(=O)c2ccc(CN3CCN(C)CC3)cc2)cc1Nc1nccc(-c2cccnc2)n1", "ASSAY TARGET": "EKVX", "pIC50": "< 5.70"}
{"SMILES REPR": "CCCCCCCCCCCC1=C(O)C(=O)C=C(O)C1=O", "ASSAY TARGET": "EKVX", "pIC50": "< 4.49"}

Give one value of pIC50 per listed compound.
1. NC(=O)Nc1cc(-c2cccc(F)c2)sc1C(=O)N[C@H]1CCCNC1
2. OC[C@H](Cc1ccccc1)Nc1nc(Oc2ccc3c(c2)CCC3)nc2c1ncn2Cc1ccc(-c2ccccc2)cc1

# output
1: < 5.70; 2: < 4.99
